FYI, the data here is from ChEMBL document CHEMBL1165886.

// values below are reported TD50 at 0.5 h
# ASSAY_INFO: Neurotoxicity in ip dosed Albino mouse assessed as minimal motor impairment after 0.5 hrs by rotarod test
# Format: toxicity, organism-based
# CONDITION: in vivo
REPORTED_PROPERTY: TD50 at 0.5 h

• COc1ccc(/C(C)=N\NC(=O)Nc2nc(-c3ccc(F)cc3)cc(-c3ccc([N+](=O)[O-])cc3)n2)cc1 = 300 mg/kg
• CCC1(c2ccccc2)C(=O)NC(=O)NC1=O = 100 mg/kg
• C/C(=N/NC(=O)Nc1nc(-c2ccc(C)cc2)cc(-c2ccc(Cl)cc2)n1)c1ccc([N+](=O)[O-])cc1 = 100 mg/kg
• COc1ccc(-c2cc(-c3ccc(Cl)cc3)nc(NC(=O)N/N=C\c3cccc(Cl)c3)n2)cc1OC = 300 mg/kg
• C/C(=N/NC(=O)Nc1nc(-c2ccc(C)cc2)cc(-c2ccc(F)cc2)n1)c1ccc([N+](=O)[O-])cc1 = 100 mg/kg
• O=C1NC(=O)C(c2ccccc2)(c2ccccc2)N1 = 100 mg/kg
• COc1ccc(-c2cc(-c3ccc(F)cc3)nc(NC(=O)N/N=C(/C)c3ccc(C)cc3)n2)cc1 = 100 mg/kg
